Below, each of the compounds is paired with its reported IC50 value.
tested on: TNFα-induced NFκB reporter activity in CDK8/19 dKO 293 cells; experiment: NFκB-dependent luciferase reporter cell-based assay in CDK8/19 dKO 293 cells; set-up: species or system human; details: Homo sapiens, HEK293; 293-dKO-NFKB-LUC#2; 10 ng/mL TNFα 3 h; read-out: NFkB activity Assay IC50
endpoint-label: IC50 (nM)

[
  {
    "compound": "CN(C)C(=O)c1ccc(N2CCCN(c3ccnc4sc(C(N)=O)c(N)c34)CC2)cc1 [15u]",
    "readout-qualifier": ">",
    "measured-result": 1000
  },
  {
    "compound": "CN(C)C(=O)Cc1ccc(N2CCCN(c3ccnc4sc(C(N)=O)c(N)c34)CC2)cc1 [15w]",
    "readout-qualifier": ">",
    "measured-result": 1000
  },
  {
    "compound": "CC(C)C[C@H](NC(=O)[C@H](Cc1ccccc1)NC(=O)c1cnccn1)B(O)O",
    "readout-qualifier": "=",
    "measured-result": 173
  },
  {
    "compound": "CN1CC[C@H](c2c(O)cc(O)c3c(=O)cc(-c4ccccc4Cl)oc23)[C@H](O)C1",
    "readout-qualifier": "=",
    "measured-result": 26
  },
  {
    "compound": "CN1CCN(C(=O)c2ccc3cc(CCNc4ncnc5ccc(C#N)cc45)ccc3c2)CC1",
    "readout-qualifier": ">",
    "measured-result": 1000
  },
  {
    "compound": "Cc1ccc(S(=O)(=O)N[C@@H](Cc2ccccc2)C(=O)CCl)cc1",
    "readout-qualifier": "=",
    "measured-result": 12000
  },
  {
    "compound": "CC(=O)c1c(C)c2cnc(Nc3ccc(N4CCNCC4)cn3)nc2n(C2CCCC2)c1=O",
    "readout-qualifier": ">",
    "measured-result": 2000
  },
  {
    "compound": "CN(C)C/C=C/C(=O)Nc1ccc(C(=O)Nc2cccc(Nc3ncc(Cl)c(-c4c[nH]c5ccccc45)n3)c2)cc1",
    "readout-qualifier": "=",
    "measured-result": 352
  }
]

###

Below, each of the molecules is paired with its reported IC50 value.
system: TNFα-induced NFκB reporter activity in WT 293 cells (CDK8/19 inhibition); experiment: NFκB-dependent luciferase reporter cell-based assay in WT 293 cells; design: species or system human; details: 293-WT-NFKB-LUC#8; 10 ng/mL TNFα 3 h; read-out: NFkB activity Assay IC50
endpoint-label: IC50

[
  {
    "molecule": "CN(C)C(=O)Cc1ccc(N2CCCN(c3ccnc4sc(C(N)=O)c(N)c34)CC2)cc1 [15w]",
    "target-of-assay": "TNFα-induced NFκB reporter activity in WT 293 cells (CDK8/19 inhibition)",
    "endpoint-label": "IC50",
    "measured-result": "4 nM"
  },
  {
    "molecule": "CN(C)C(=O)c1ccc(N2CCCN(c3ccnc4sc(C(N)=O)c(N)c34)CC2)cc1 [15u]",
    "target-of-assay": "TNFα-induced NFκB reporter activity in WT 293 cells (CDK8/19 inhibition)",
    "endpoint-label": "IC50",
    "measured-result": "10 nM"
  }
]
